Documented IC50 across a set of compounds
# Target of assay: BRD4 Bromodomain 1 (BRD4 BD1) (Homo sapiens)
# Construct: 44-168 and BRD4 BD2
# Method notes: AlphaScreen binding assay, BRD4 BD1
# Condition summary: His-tagged BRD4 BD1 50 nM, biotinylated H4 (1-21) K5/8/12/16 tetra-acetylated peptide 50 nM, compounds listed under IC50 range headings

compound=COC(=O)N1c2ccc(-c3cnn(C4CCNCC4)c3)c(Oc3ccccc3OC)c2CC[C@@H]1C value="0.1 to 1 µM"

Inquiry: Record lookup: for BRD4 Bromodomain 1 (BRD4 BD1) (Homo sapiens), what IC50 belongs to COC(=O)N1c2ccc(-c3cnn(C4CCNC(=O)C4)c3)c(OC3CCC3)c2CC[C@@H]1C (stereo partly shown) ?
Reply text: 0.1 to 1 µM

Inquiry: Record CC(=O)N1c2ccc(-c3cnn(C4COC4)c3)c(OCc3ccno3)c2CC[C@@H]1C : what is its IC50 with BRD4 Bromodomain 1 (BRD4 BD1) (Homo sapiens)?
Reply text: 1 to 10 µM

Inquiry: Under BRD4 Bromodomain 1 (BRD4 BD1) (Homo sapiens): IC50 value of COC(=O)N1c2ccc(-c3cnn(C4CCNCC4)c3)c(Oc3cccc(OC)c3)c2CC[C@@H]1C ?
Reply text: 0.1 to 1 µM

Inquiry: Notebook entry, BRD4 Bromodomain 1 (BRD4 BD1) (Homo sapiens) assay: IC50 of COC(=O)N1c2ccc(-c3cnn(CCO)c3)c(OC3CCC3)c2CC[C@@H]1C = ?
Reply text: 0.1 to 1 µM

Inquiry: Lab note: need IC50 for CC(=O)N1c2ccc(-c3cnn(C4CCNCC4)c3)c(OCCN(C)S(C)(=O)=O)c2CC[C@@H]1C on BRD4 Bromodomain 1 (BRD4 BD1) (Homo sapiens), anyone have it?
Reply text: 1 to 10 µM

Inquiry: Lab note: need IC50 for COC(=O)N1c2ccc(-c3cnn(C4CCNCC4)c3)c(Oc3ncc(C(F)(F)F)cc3F)c2CC[C@@H]1C on BRD4 Bromodomain 1 (BRD4 BD1) (Homo sapiens), anyone have it?
Reply text: 1 to 10 µM

Inquiry: Form field: IC50 recorded for COc1cccc(Oc2c(-c3cnn(C4CCNCC4)c3)ccc3c2CC[C@H](C)N3C(=O)C2CC2)c1 with BRD4 Bromodomain 1 (BRD4 BD1) (Homo sapiens) (enter value)
Reply text: 0.1 to 1 µM

Inquiry: Lab note: need IC50 for COC(=O)N1c2ccc(-c3cnn(C4CN(C)C4)c3)c(Oc3ccc(F)cc3)c2CC[C@@H]1C on BRD4 Bromodomain 1 (BRD4 BD1) (Homo sapiens), anyone have it?
Reply text: 0.1 to 1 µM

Inquiry: Recorded IC50 for CC(=O)N1c2ccc(-c3cnn(C4CC4)c3)c(OCC(=O)N3CCC3)c2CC[C@@H]1C with BRD4 Bromodomain 1 (BRD4 BD1) (Homo sapiens), please?
Reply text: 0.1 to 1 µM

Inquiry: Field: IC50 (BRD4 Bromodomain 1 (BRD4 BD1) (Homo sapiens)). Entry: COC(=O)N1c2ccc(-c3cnn(C4CCNC4)c3)c(Oc3ccc(F)cc3)c2CC[C@@H]1C (stereo partly shown)
Reply text: 0.1 to 1 µM

Inquiry: Form field - read-out: IC50; system: BRD4 Bromodomain 1 (BRD4 BD1) (Homo sapiens); submitted item: COC(=O)N1c2ccc(-c3cnn(C4CNC4)c3)c(Oc3cc(F)cc(F)c3)c2CC[C@@H]1C
Reply text: 0.1 to 1 µM

Inquiry: What IC50 appears in the records for this compound with BRD4 Bromodomain 1 (BRD4 BD1) (Homo sapiens)? C[C@H]1CCc2c(ccc(-n3cccn3)c2Oc2ccccc2)N1C(=O)C1CC1
Reply text: ≥ 10 µM

----------
# Target of assay: BRD4 Bromodomain 2 (BRD4 BD2) (Homo sapiens, UniProt O60885)
# Construct: 333-460 were cloned, expressed, and purified to homogeneity
# Method notes: AlphaScreen binding assay, BRD4 BD2
# Condition summary: His-tagged BRD4 BD2 100 nM, biotinylated H4 (1-21) K5/8/12/16 tetra-acetylated peptide 100 nM, compounds listed under IC50 range headings
Reported metric: IC50

Worked examples follow.
molecule=CCCOc1c(-c2cnn(C3CCNCC3)c2)ccc2c1CC[C@H](C)N2C(C)=O reported_metric=IC50 value="< 50 nM"
molecule=CC(=O)N1c2ccc(-c3cnn(C4CCNCC4)c3)c(OCCN(C)S(C)(=O)=O)c2CC[C@@H]1C reported_metric=IC50 value="50 to 500 nM"
molecule=COC(=O)N1c2ccc(-c3cnn(C4CC4)c3)c(Oc3ncc(C(F)(F)F)cc3F)c2CC[C@@H]1C reported_metric=IC50 value="50 to 500 nM"

Inquiry: Find IC50 (BRD4 Bromodomain 2 (BRD4 BD2) (Homo sapiens, UniProt O60885)) for the entry COC(=O)N1c2ccc(-c3cnn(C4CCCS(=O)(=O)C4)c3)c(OC3CCC3)c2CC[C@@H]1C (stereo partly drawn)
Reply text: < 50 nM

Inquiry: Recorded IC50 for CCCOc1c(-c2nc3ccccc3o2)ccc2c1CC[C@H](C)N2C(C)=O with BRD4 Bromodomain 2 (BRD4 BD2) (Homo sapiens, UniProt O60885), please?
Reply text: 50 to 500 nM

Inquiry: Notebook: pull reported IC50 for BRD4 Bromodomain 2 (BRD4 BD2) (Homo sapiens, UniProt O60885), entry CC(=O)N1c2ccc(-c3cnn(C4CC4)c3)c(OCC3CC3)c2CC[C@@H]1C
Reply text: < 50 nM
